test system: COR-L23; assay: Inhibition of ENT-mediated [3H]thymidine incorporation in human COR-L23 cells at 1 uM by liquid scintillation counting; assay type: cell-based
For each entry below, report its inhibition value.
Expressed in %, but write only the number.

# COc1ccc(CNc2nc(NCC(C)OC(=O)Nc3ccc([N+](=O)[O-])cc3)nc3c(NCc4ccc(OC)c(OC)c4)nc(NCC(C)O)nc23)cc1OC (centres undefined) with COR-L23: inhibition is 96

# COc1ccc(CNc2nc(NCC(C)OC(=O)Nc3ccccc3)nc3c(NCc4ccc(OC)c(OC)c4)nc(NCC(C)OC(=O)CCC(=O)O)nc23)cc1OC (centres undefined) with COR-L23: inhibition is 94

# COc1ccc(CNc2nc(NCC(C)OC(=O)[C@@H](N)C(C)C)nc3c(NCc4ccc(OC)c(OC)c4)nc(NCC(C)OC(=O)[C@@H](N)C(C)C)nc23)cc1OC.Cl.Cl (some centres undefined) with COR-L23: inhibition is 87

# C=CCOc1ccc(CNc2nc(NCC(C)O)nc3c(NCc4ccc(OC)c(OC)c4)nc(NCC(C)O)nc23)cc1OC (centres undefined) with COR-L23: inhibition is 96

Reference source for all entries: ChEMBL document CHEMBL1764979
